Data provenance: patent US20190359653A1

In this section, each of the binders is paired with its reported IC50 (nM), TOPbrite reporter assay in HEK293-TB cells stimulated with mWnt3a (50 ng/mL).
Target: FZD7 receptor of HEK293-TB cells (human, UniProt O75084 33-574)
Assay: cell-based or functional assay
ENDPOINT_NAME: IC50 (nM), TOPbrite reporter assay in HEK293-TB cells stimulated with mWnt3a (50 ng/mL)

• Ac-LPSDDLEFWCHVAY-NH2 (also: homodimer via Cys10 disulfide) [dFz7-21-M13A] = 913 nM
• Ac-LPSDDLEFWCHVMA-NH2 (also: homodimer via Cys10 disulfide) [dFz7-21-Y14A] = 2960 nM
• Ac-LPSDDAEFWCHVMY-NH2 (also: homodimer via Cys10 disulfide) [dFz7-21-L6A] = 7120 nM
• Ac-LPSDDLEFACHVMY-NH2 (also: homodimer via Cys10 disulfide) [dFz7-21-W9A] = 640 nM
